Sourced from ChEMBL document CHEMBL3817794

Test: Displacement of [3H]-di-o-tolylguanidine from sigma 2 receptor in rat liver membranes after 120 mins by scintillation counting analysis
Format: cell membranes, Membrane
pKi: −log10 of the molar value.
Response key: T means pKi >= 7; F means pKi < 7.

Past entries and their recorded results:
{"Substance Smiles": "O[C@H]1C[C@H]2CN(CC3CCCCC3)[C@@H]1CN2Cc1ccccc1", "Label": "T"}
{"Substance Smiles": "O[C@H]1C[C@H]2CN(CC3CCCCC3)[C@@H]1CN2Cc1ccc(-c2ccccc2)cc1", "Label": "T"}
{"Substance Smiles": "O[C@@H]1C[C@H]2CN(CC3CCCCC3)[C@@H]1CN2Cc1ccccc1", "Label": "T"}

### Prompt pKi >= 7 for O[C@H]1C[C@@H]2CN(CC3CCCCC3)[C@H]1CN2Cc1ccccc1 ?
### Response F

### Prompt Check this compound for pKi at or above 7: O[C@@H]1C[C@@H]2CN(CC3CCCCC3)[C@H]1CN2Cc1cccc2ccccc12
### Response T

### Prompt Reported pKi at or above 7? O[C@@H]1CC[C@H]2CN(CC3CCCCC3)[C@@H]1CN2Cc1ccccc1
### Response F

### Prompt hey, is pKi for this one >= 7? O[C@@H]1C[C@H]2CN(CC3CCCCC3)[C@@H]1CN2Cc1ccc(-c2ccccc2)cc1
### Response F
